B1: VENTX (parent)
chain: VFQHHQYLSPLERKRLAREMQLSE

# Variants of: B1
# protocol summary: protein stability index of a GFP-peptide fusion (GPS, HEK-293T) (PSI 1-6); higher = more stable;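 note: lentivirally expressed fusions sorted by FACS into six bins by GFP to DsRed ratio, PSI derived from sequencing read proportions per bin multiplied by bin number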
# assay setup: c terminus: a fixed tail appended
quantity name: protein stability index

| ordered residues | endpoint result |
| --- | --- |
| VFQHHQYLSPLERKRTAREMQLSE | 2.71 |
| VFQHHQYLSPLERKDLAREMQLSE | 2.6 |
| VFQHHQYLSPLERKRSAREMQLSE | 2.8 |
| VFQCHQYLSPLERKRLAREMQLSE | 2.56 |

This collection of values is drawn from the supplement of paper PMC10567573.
